target: MAGI3_2, Q5TCQ9; assay: holdup assay; set-up: key: below the threshold = too weak to quantify, mostly under pKd 3.1 to 4; details: plain residues with an end cap or a label only (N-terminal biotin on a linker: ado-ado)
Sequence (Q5TCQ9 398-503): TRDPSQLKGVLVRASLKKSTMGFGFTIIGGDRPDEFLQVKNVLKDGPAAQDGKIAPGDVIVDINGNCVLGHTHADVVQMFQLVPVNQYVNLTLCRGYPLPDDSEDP
In this section, each of the binders is paired with its reported pKd.

# binder, pKd
rows = [
    ("QKNKDKEYYV [NRXN3_rs746444206, Q9Y4C0]", 4.63),
    ("FVHPILQSAV [PRKCA, P17252]", 4.32),
    ("TETASVCTKV [SLC23A1, Q9UHI7]", 4.18),
]
